Target: Human adrenergic α1B receptor (Homo sapiens, UniProt P35368)
Experiment: Radioligand binding, adrenergic α1B (Protocol Group B)
Set-up: purchased Milipore (Millipore)
Conditions: 0.3 μM compound; Protocol Group B; 0.3 µM
Note to self: values exactly at 20% are Yes. So Percentage inhibition of ligand binding, Adrenergic α1B (0.3 μM) at or above 20% is Yes, below is No.

# compound, categoryLabel
rows = [
    ("Cc1ccc2c(c1)c1c(n2CC(C)(O)c2cncc(F)c2)CCN(C)C1 (single isomer, unassigned) [46a]", "Yes"),
    ("Cc1ccc2c(c1)c1c(n2CC(O)c2ccncc2)CNC2CCCC12 (single isomer, unassigned) [34d]", "Yes"),
    ("Cc1cc(F)c2c(c1)c1c(n2CC(C)(O)c2ccncc2)CCN2CCCC12 (single isomer, unassigned) [81d]", "No"),
    ("Cc1cc(F)c2c(c1)c1c(n2CC(C)(O)c2cccnc2)CCN2CCCC12 (stereo not drawn) [Compound No. 79a]", "Yes"),
    ("Cc1cc(F)c2c(c1)c1c(n2CC(C)(O)c2cccnc2)CC2CCCN2C1 (single isomer, unassigned) [61b]", "No"),
    ("Cc1ccc2c(c1)c1c(n2CC(O)c2ccccn2)CC2CCCN2C1 (single isomer, unassigned) [45b]", "Yes"),
    ("Cc1ccc2c(c1)c1c(n2CC(OC2CCCC2)c2ccncc2)CCN(C)C1 (single isomer, unassigned) [35a]", "Yes"),
    ("CN1CCc2c(c3cc(C(F)(F)F)ccc3n2CC(OC2CCCC2)c2ccncc2)C1 (single isomer, unassigned) [60a]", "Yes"),
]

# next compound below
**Query** Would you say Cc1ccc2c(c1)c1c(n2CC(C)(O)c2cnc3ccccc3c2)CCN(C)C1 (single isomer, unassigned) [32b] shows Percentage inhibition of ligand binding, Adrenergic α1B (0.3 μM) at minimum 20%?
**Result** No

* * *

Target: Human adrenergic α2B receptor (Homo sapiens)
Sequence (P18089 1-450): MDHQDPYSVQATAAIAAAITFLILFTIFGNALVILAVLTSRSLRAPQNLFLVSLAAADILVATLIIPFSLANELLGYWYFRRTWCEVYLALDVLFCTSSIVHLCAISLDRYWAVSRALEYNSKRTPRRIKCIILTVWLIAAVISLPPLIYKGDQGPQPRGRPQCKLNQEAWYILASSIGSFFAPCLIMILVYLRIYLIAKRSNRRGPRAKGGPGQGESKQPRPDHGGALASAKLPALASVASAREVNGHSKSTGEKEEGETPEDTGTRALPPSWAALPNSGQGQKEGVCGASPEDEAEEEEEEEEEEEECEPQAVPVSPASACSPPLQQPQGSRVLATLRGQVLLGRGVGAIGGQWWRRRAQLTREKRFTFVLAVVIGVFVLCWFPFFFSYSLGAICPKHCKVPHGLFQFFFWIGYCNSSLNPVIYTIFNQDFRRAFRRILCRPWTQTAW
Assay: Radioligand binding, adrenergic α2B (Protocol Group B)
Set-up: purchased Milipore (Millipore)
Settings: 0.1 μM compound; Protocol Group B; 0.1 µM
observedProperty: Percentage inhibition of ligand binding, Adrenergic α2B (0.1 μM) (%)
Entry rule: numbers only, all in %.

Below: 3 molecules and their reported Percentage inhibition of ligand binding, Adrenergic α2B (0.1 μM).
# molecule, tgt, resultValue
records = [
    ("CC(O)(Cn1c2c(c3cc(Cl)cc(F)c31)C1CCCN1CC2)c1cccnc1 (single isomer, unassigned) [53c]", "Human adrenergic α2B receptor (Homo sapiens)", 1),
    ("Cc1ccc2c(c1)c1c(n2CC(C)(O)c2cccnc2)CC2CCC1N2C (single isomer, unassigned) [101c]", "Human adrenergic α2B receptor (Homo sapiens)", 16),
    ("Cc1cc(C)c2c(c1)c1c(n2CC(C)(O)c2ccncc2)CCN2CCCC12 (single isomer, unassigned) [19d]", "Human adrenergic α2B receptor (Homo sapiens)", "−1"),
]

Please look at the following molecule next.
**Query** Report measured Percentage inhibition of ligand binding, Adrenergic α2B (0.1 μM); entry is Cc1cc(F)c2c(c1)c1c(n2CC(C)(O)c2ccncc2)CC2CCCN2C1 (single isomer, unassigned) [62b]
**Result** 62

* * *

Molecular target: Human adrenergic α1B receptor (Homo sapiens, UniProt P35368)
Experiment: Radioligand binding, adrenergic α1B (Protocol Group B)
Set-up: purchased Milipore (Millipore)
Settings: 0.3 μM compound; Protocol Group B; 0.3 µM
observedProperty: Percentage inhibition of ligand binding, Adrenergic α1B (0.3 μM) (%)
Entry rule: numbers only, all in %.

# molecule, tgt, unitText, resultValue
data = [
    ("Cc1cc2c3c(n(CC(C)(O)c4ccncc4)c2cc1Cl)CCN1CCCC31 (single isomer, unassigned) [50d]", "Human adrenergic α1B receptor (Homo sapiens, UniProt P35368)", "%", 4),
    ("Cc1ccc2c(c1)c1c(n2CC(C)(O)c2ccnc(F)c2)CCN2CCCC12 (single isomer, unassigned) [48b]", "Human adrenergic α1B receptor (Homo sapiens, UniProt P35368)", "%", 84),
    ("Cc1ccc2c(c1)c1c(n2CC(C)(O)c2ccncc2)CCN2CCCC12 (single isomer, unassigned) [13d]", "Human adrenergic α1B receptor (Homo sapiens, UniProt P35368)", "%", 9),
]

Please look at the following molecule next.
**Query** Report measured Percentage inhibition of ligand binding, Adrenergic α1B (0.3 μM); entry is Cc1cc(Cl)c2c(c1)c1c(n2CC(C)(O)c2ccncc2)CCN2CCCC12 (single isomer, unassigned) [91d]
**Result** 6

* * *

Target: Human adrenergic α2A receptor (Homo sapiens, UniProt P08913)
Sequence (P08913 whole entry): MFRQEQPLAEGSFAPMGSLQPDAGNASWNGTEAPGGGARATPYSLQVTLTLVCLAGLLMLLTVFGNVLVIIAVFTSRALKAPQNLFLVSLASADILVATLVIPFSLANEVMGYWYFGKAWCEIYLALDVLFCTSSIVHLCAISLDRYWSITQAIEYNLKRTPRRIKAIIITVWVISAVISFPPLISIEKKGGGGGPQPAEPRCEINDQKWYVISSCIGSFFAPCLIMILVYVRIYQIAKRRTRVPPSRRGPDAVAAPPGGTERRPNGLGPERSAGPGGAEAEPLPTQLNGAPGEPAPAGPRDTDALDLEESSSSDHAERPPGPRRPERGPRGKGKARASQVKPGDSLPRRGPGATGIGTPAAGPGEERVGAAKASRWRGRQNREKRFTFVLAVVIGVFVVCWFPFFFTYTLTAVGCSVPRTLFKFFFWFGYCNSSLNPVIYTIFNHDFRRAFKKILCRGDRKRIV
Test: Radioligand binding, adrenergic α2A (Protocol Group B)
Set-up: purchased Milipore (Millipore)
Conditions: 0.1 μM compound; Protocol Group B; 0.1 µM
Note to self: values exactly at 20% are rule met. So Percentage inhibition of ligand binding, Adrenergic α2A (0.1 μM) at or above 20% is rule met, below is rule not met.

// below: answered compounds
# compound, categoryLabel
rows = [
    ("Cc1ccc2c(c1F)c1c(n2CC(C)(O)c2cccnc2)CCN2CCCC12 (single isomer, unassigned) [87d]", "rule met"),
    ("Cc1cc(Cl)c2c(c1)c1c(n2CC(O)c2ccncc2)CCN2CCCC12 (single isomer, unassigned) [142a]", "rule met"),
    ("Cc1cc(F)cc2c3c(n(CC(C)(O)c4cccnc4)c12)CC1CCCN1C3 (single isomer, unassigned) [76c]", "rule not met"),
    ("Cc1cc(Cl)c2c(c1)c1c(n2CC(C)(O)c2ccncc2)CCN2CCCC12 (single isomer, unassigned) [91d]", "rule not met"),
    ("Cc1cc(C)c2c(c1)c1c(n2CC(C)(O)c2ccncc2)CCN2CCCC12 (stereo not drawn) [compound 19]", "rule met"),
    ("Cc1ccc2c(c1)c1c(n2CC(OC2CCCC2)c2ccncc2)CCN(C)C1 (single isomer, unassigned) [35b]", "rule met"),
    ("Cc1ccc2c(c1)c1c(n2CC(C)(O)c2cccnc2)CC2CCC1N2C (single isomer, unassigned) [101d]", "rule not met"),
    ("Cc1ccc2c(c1)c1c(n2CC(C)(O)c2ccncc2)CC2CCCN2C1 (single isomer, unassigned) [37c]", "rule not met"),
    ("Cc1cc(F)cc2c3c(n(CC(C)(O)c4ccncc4)c12)CC1CCCN1C3 (single isomer, unassigned) [78a]", "rule not met"),
    ("Cc1cc(F)cc2c3c(n(CC(C)(O)c4cccnc4)c12)CCN1CCCC31 (single isomer, unassigned) [75a]", "rule not met"),
]

**Query** Would you say Cc1ccc2c(c1)c1c(n2CC(C)(O)c2ccncc2)CCN2CCCC12 (single isomer, unassigned) [13c] shows Percentage inhibition of ligand binding, Adrenergic α2A (0.1 μM) at minimum 20%?
**Result** rule not met

**Query** Would you say CN1CCc2c(c3cc(CCO)ccc3n2CC(O)c2ccncc2)C1 (single isomer, unassigned) [140a] shows Percentage inhibition of ligand binding, Adrenergic α2A (0.1 μM) at minimum 20%?
**Result** rule not met

**Query** Would you say Cc1cc(Cl)c2c(c1)c1c(n2CC(C)(O)c2ccncc2)CCN2CCCC12 (single isomer, unassigned) [91b] shows Percentage inhibition of ligand binding, Adrenergic α2A (0.1 μM) at minimum 20%?
**Result** rule met

**Query** Would you say Cc1ccc2c(c1)c1c(n2CC(C)(O)c2ccc(N(C)C)nc2)CCN(C)C1 (single isomer, unassigned) [39b] shows Percentage inhibition of ligand binding, Adrenergic α2A (0.1 μM) at minimum 20%?
**Result** rule not met

* * *

Target: UniProt:P35368
Sequence (P35368 1-520): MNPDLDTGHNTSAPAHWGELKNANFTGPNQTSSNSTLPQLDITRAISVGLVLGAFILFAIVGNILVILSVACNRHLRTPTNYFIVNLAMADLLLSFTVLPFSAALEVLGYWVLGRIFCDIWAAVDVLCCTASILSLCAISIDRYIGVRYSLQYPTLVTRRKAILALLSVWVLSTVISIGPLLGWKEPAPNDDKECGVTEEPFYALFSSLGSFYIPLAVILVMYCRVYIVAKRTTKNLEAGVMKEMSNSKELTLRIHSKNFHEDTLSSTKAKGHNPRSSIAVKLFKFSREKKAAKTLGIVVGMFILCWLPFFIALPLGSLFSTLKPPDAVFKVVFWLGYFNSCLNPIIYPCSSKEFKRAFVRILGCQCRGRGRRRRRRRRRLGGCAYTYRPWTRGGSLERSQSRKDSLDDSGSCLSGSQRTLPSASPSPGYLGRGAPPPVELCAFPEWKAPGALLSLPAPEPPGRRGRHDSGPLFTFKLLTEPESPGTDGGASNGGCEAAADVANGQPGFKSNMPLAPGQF
Test: Radioligand binding, adrenergic α1B (Protocol Group B)
Design: purchased Milipore (Millipore)
Settings: 0.3 μM compound; Protocol Group B; 0.3 µM
Below, each entry is listed with its recorded Percentage inhibition of ligand binding, Adrenergic α1B (0.3 μM).
Entry rule: numbers only, all in %.

# compound, unitText, resultValue
measured = [
    ("Cc1cc(F)c2c(c1)c1c(n2CC(C)(O)c2ccncc2)CCN2CCCC12 (single isomer, unassigned) [81b]", "%", 76),
]

**Query** Report measured Percentage inhibition of ligand binding, Adrenergic α1B (0.3 μM); entry is Cc1ccc2c(c1)c1c(n2CC(O)c2cccnc2)CC2CCCN2C1 (single isomer, unassigned) [27a]
**Result** 15

**Query** Report measured Percentage inhibition of ligand binding, Adrenergic α1B (0.3 μM); entry is Cc1ccc2c(c1)c1c(n2CC(O)c2ccccn2)CC2CCCN2C1 (single isomer, unassigned) [45d]
**Result** 18

**Query** Report measured Percentage inhibition of ligand binding, Adrenergic α1B (0.3 μM); entry is Cc1cc(F)cc2c3c(n(CC(C)(O)c4ccncc4)c12)CC1CCCN1C3 (single isomer, unassigned) [78c]
**Result** −2

**Query** Report measured Percentage inhibition of ligand binding, Adrenergic α1B (0.3 μM); entry is Cc1cc(C)c2c(c1)c1c(n2CC(C)(O)c2cccnc2)CCN2CCCC12 (single isomer, unassigned) [44b]
**Result** 85

**Query** Report measured Percentage inhibition of ligand binding, Adrenergic α1B (0.3 μM); entry is OC(Cn1c2c(c3cc(F)ccc31)C1CCCN1CC2)c1ccncc1 (single isomer, unassigned) [18d]
**Result** 24
